Please provide measured viscosity for the entries that follow.
Procedure Details: xn = mol fraction of the nth substance listed
Cond: 313.15 K; 101.3 kPa; x1 = 0.7
Quick reminder: number only, in mPa·s, skip the unit.

Query: viscosity; subject: C=C[n+]1ccn(CCCC)c1.N[C@@H](CO)C(=O)[O-] + O
446

Again, but for C=C[n+]1ccn(CCCC)c1.N[C@@H](Cc1c[nH]cn1)C(=O)[O-] + O
43.6

Proceed to C=Cn1cc[n+](CCCC)c1.NCC(=O)[O-] + O
199

Try this compound next: C=C[n+]1ccn(CCCC)c1.NCCCC[C@H](N)C(=O)[O-] + O
55.38
